Target: Angiotensin-converting enzymes (ACE) from porcine kidneys (EC 3.4.15.1) (Sus scrofa)
Construct: Angiotensin-converting enzymes (ACE) from porcine kidneys (EC 3.4.15.1) were purchased from Sigma-Aldrich; purchased Sigma-Aldrich (St. Louis, MO, USA); host or cells: porcine kidneys (tissue-derived enzyme)
Sequence (F1RRW5 34-1309): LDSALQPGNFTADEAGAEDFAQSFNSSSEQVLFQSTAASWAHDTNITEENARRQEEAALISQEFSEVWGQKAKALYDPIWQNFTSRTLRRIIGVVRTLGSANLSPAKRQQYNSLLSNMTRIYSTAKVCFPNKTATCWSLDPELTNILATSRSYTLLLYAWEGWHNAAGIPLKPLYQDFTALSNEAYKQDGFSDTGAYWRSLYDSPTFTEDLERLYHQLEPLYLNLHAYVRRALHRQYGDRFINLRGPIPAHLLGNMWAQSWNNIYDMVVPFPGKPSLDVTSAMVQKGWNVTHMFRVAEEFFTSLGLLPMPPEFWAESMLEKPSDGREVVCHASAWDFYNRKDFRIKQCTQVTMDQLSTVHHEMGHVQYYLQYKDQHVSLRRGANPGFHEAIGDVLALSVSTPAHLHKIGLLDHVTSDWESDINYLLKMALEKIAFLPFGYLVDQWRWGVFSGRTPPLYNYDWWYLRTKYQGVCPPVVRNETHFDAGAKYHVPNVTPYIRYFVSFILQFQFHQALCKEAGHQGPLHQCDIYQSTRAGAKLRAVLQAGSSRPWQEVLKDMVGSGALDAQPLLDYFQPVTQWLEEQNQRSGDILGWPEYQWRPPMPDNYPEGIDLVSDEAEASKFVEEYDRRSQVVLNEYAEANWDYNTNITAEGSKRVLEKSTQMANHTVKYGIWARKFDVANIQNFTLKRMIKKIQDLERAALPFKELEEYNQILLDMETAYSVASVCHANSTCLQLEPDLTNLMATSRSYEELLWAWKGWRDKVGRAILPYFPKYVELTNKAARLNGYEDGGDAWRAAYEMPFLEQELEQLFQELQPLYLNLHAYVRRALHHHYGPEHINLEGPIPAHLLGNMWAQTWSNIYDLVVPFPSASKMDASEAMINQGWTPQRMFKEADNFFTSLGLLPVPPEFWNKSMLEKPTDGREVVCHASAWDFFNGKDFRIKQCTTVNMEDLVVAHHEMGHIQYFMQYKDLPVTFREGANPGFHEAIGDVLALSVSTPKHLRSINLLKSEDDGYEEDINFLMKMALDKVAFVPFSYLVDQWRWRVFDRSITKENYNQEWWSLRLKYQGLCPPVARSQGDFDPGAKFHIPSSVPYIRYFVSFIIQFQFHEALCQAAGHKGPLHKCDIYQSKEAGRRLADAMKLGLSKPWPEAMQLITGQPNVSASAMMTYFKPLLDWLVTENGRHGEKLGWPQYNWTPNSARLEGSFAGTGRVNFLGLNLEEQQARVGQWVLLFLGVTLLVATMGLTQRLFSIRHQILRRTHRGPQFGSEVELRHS
Experiment: biochemical
Conditions: IC50 Value (ACE inhibitory activity), porcine kidney ACE, substrate Abz-Gly-Phe(NO2)-Pro, fluorescence after 30 min; mean ± SD
measured_property: pIC50
One number for each entry, as −log10 of the molar value.

Solved entries (count: 5):
molecule	pIC50
O=C(O)c1cc(O)ccc1O [Gentisic acid]	3.08
O=c1c(OC2OC(CO)C(O)C(O)C2O)c(-c2ccc(O)c(O)c2)oc2cc(O)cc(O)c12 [Hyperoside, quercetin-3-O-D-galactoside]	3.80
O=c1c(OC2OC(CO)C(O)C(O)C2O)c(-c2ccc(O)cc2)oc2cc(O)cc(O)c12 (stereo not drawn) [Kaempferol-3-O-glucoside]	3.96
COc1cc(CC(=O)O)ccc1O [HVA, 2-(3-methoxy-4-hydroxyphenyl)acetic acid]	2.84
C[C@@H]1O[C@@H](OC[C@H]2O[C@@H](Oc3c(-c4ccc(O)c(O)c4)oc4cc(O)cc(O)c4c3=O)[C@H](O)[C@@H](O)[C@@H]2O)[C@H](O)[C@H](O)[C@H]1O [Rutin, quercetin-O-3-rutinoside]	4.23

Provide pIC50 for all items below, preserving their order.
1. O=c1cc(-c2ccc(O)cc2)oc2cc(O)cc(O)c12 [Apigenin]
2. O=c1cc(-c2ccc(O)c(O)c2)oc2cc(OC3OC(CO)C(O)C(O)C3O)cc(O)c12 (stereo not drawn) [Luteolin-7-O-glucoside]
3. Oc1cc(O)c2cc(O)c(-c3cc(O)c(O)c(O)c3)[o+]c2c1 [Delphinidin]
4. COc1cc(/C=C/C(=O)O)cc(OC)c1O [Sinapic acid]

Marked response:
1: 3.47; 2: 4.21; 3: 3.61; 4: 3.31
